- assay_comment: Antiviral activity against 1 MOI Bovine viral diarrhea virus NADL infected in MDBK cells assessed as reduction in viral titer after 72 hrs by plaque forming assay
- Type: functional, cell-based, Bovine viral diarrhea virus 1-NADL
- stated_conditions: Bovine viral diarrhea virus isolates and strains
property_name: EC50 (µM)
Give a bare numeral; the unit µM is implied.

According to the records, this compound CC1CCC(OCCCCCCN2C[C@H](O)[C@@H](O)[C@H](O)[C@H]2CO)CC1 (stereo partly specified) displays EC50 of 7.1

According to the records, this compound C[C@@H]1CCCCC1OCCCCCCN1C[C@H](O)[C@@H](O)[C@H](O)[C@H]1CO (stereo partly specified) displays EC50 of 3.3

According to the records, this compound "Cc1ccc(C)c(OCCCCCCN2C[C@H](O)[C@@H](O)[C@H](O)[C@H]2CO)c1" displays EC50 of 3

According to the records, this compound "CCCC(O)(CCC)CCCCCN1C[C@H](O)[C@@H](O)[C@H](O)[C@H]1CO" displays EC50 of 9.5

According to the records, this compound "OC[C@@H]1[C@@H](O)[C@H](O)[C@@H](O)CN1CCCCCC1(O)CCCCC1" displays EC50 of 10.5

According to the records, this compound OC[C@@H]1[C@@H](O)[C@H](O)[C@@H](O)CN1CCCCCCOC1CC2CCC1C2 (stereo partly specified) displays EC50 of 4.5

According to the records, this compound OC[C@@H]1[C@@H](O)[C@H](O)[C@@H](O)CN1CCCCCOCC1CC2CCC1C2 (stereo partly specified) displays EC50 of 2.9

According to the records, this compound "OC[C@@H]1[C@@H](O)[C@H](O)[C@@H](O)CN1CCCCCCC1(O)CCCCC1" displays EC50 of 18

According to the records, this compound "CCC(O)(CC)CCCCCN1C[C@H](O)[C@@H](O)[C@H](O)[C@H]1CO" displays EC50 of 22

According to the records, this compound CC(C)[C@@H]1CC[C@@H](C)CC1OCCCCCCN1C[C@H](O)[C@@H](O)[C@H](O)[C@H]1CO (stereo partly specified) displays EC50 of 1.6

According to the records, this compound "CCCCCCCCCN1C[C@H](O)[C@@H](O)[C@H](O)[C@H]1CO" displays EC50 of 7.3

====

For each of the molecules below, state its CC50.
- assay_comment: Cytotoxicity against african green monkey Vero cells by MTT assay
- Type: cell-based
- stated_conditions: chlorocebus sabaeus
Give a bare numeral; the unit µM is implied.

According to the records, this molecule CC(C)[C@@H]1CC[C@@H](C)CC1OCCCCCCN1C[C@H](O)[C@@H](O)[C@H](O)[C@H]1CO (stereo partly specified) displays CC50 of 80

According to the records, this molecule "Cc1ccc(C)c(OCCCCCCN2C[C@H](O)[C@@H](O)[C@H](O)[C@H]2CO)c1" displays CC50 of 85

According to the records, this molecule C[C@@H]1CCCCC1OCCCCCCN1C[C@H](O)[C@@H](O)[C@H](O)[C@H]1CO (stereo partly specified) displays CC50 of 65

====

For each of the compounds below, state its CC50.
- assay_comment: Cytotoxicity against MDBK cells by MTT assay
- Assay type: cell-based, Bos taurus
- stated_conditions: cattle

According to the records, this compound "OC[C@@H]1[C@@H](O)[C@H](O)[C@@H](O)CN1CCCCCC1(O)CCCCC1" displays CC50 of > 500 µM

According to the records, this compound "CCC(O)(CC)CCCCCN1C[C@H](O)[C@@H](O)[C@H](O)[C@H]1CO" displays CC50 of > 500 µM

According to the records, this compound "OC[C@@H]1[C@@H](O)[C@H](O)[C@@H](O)CN1CCCCCCC1(O)CCCCC1" displays CC50 of > 500 µM

According to the records, this compound "CCCCCCCCCN1C[C@H](O)[C@@H](O)[C@H](O)[C@H]1CO" displays CC50 of 245 µM

According to the records, this compound OC[C@@H]1[C@@H](O)[C@H](O)[C@@H](O)CN1CCCCCCOC1CC2CCC1C2 (stereo partly specified) displays CC50 of > 500 µM

According to the records, this compound "Cc1ccc(C)c(OCCCCCCN2C[C@H](O)[C@@H](O)[C@H](O)[C@H]2CO)c1" displays CC50 of 485 µM

====

For each of the molecules below, state its CC50.
- assay_comment: Cytotoxicity against MDBK cells by MTT assay
- Type: cell-based, Bos taurus
- stated_conditions: cattle

According to the records, this molecule C[C@@H]1CCCCC1OCCCCCCN1C[C@H](O)[C@@H](O)[C@H](O)[C@H]1CO (stereo not given in full) displays CC50 of > 500 µM

According to the records, this molecule CC(C)[C@@H]1CC[C@@H](C)CC1OCCCCCCN1C[C@H](O)[C@@H](O)[C@H](O)[C@H]1CO (stereo not given in full) displays CC50 of 235 µM

According to the records, this molecule "CCCC(O)(CCC)CCCCCN1C[C@H](O)[C@@H](O)[C@H](O)[C@H]1CO" displays CC50 of > 500 µM

According to the records, this molecule OC[C@@H]1[C@@H](O)[C@H](O)[C@@H](O)CN1CCCCCOCC1CC2CCC1C2 (stereo not given in full) displays CC50 of > 500 µM

According to the records, this molecule CC1CCC(OCCCCCCN2C[C@H](O)[C@@H](O)[C@H](O)[C@H]2CO)CC1 (stereo not given in full) displays CC50 of > 500 µM

====

- assay_comment: Antiviral activity against 1 MOI Bovine viral diarrhea virus NADL infected in MDBK cells assessed as reduction in viral titer after 72 hrs by plaque forming assay
- Format: functional, cell-based, Bovine viral diarrhea virus 1-NADL
- stated_conditions: Bovine viral diarrhea virus isolates and strains
Rule for this label: 1 (yes) means EC90 is less than 20 µM; 0 (no) means EC90 is at least 20 µM.

Is 20 µM strictly greater than the compound's reported EC90? compound: CC(C)[C@@H]1CC[C@@H](C)CC1OCCCCCCN1C[C@H](O)[C@@H](O)[C@H](O)[C@H]1CO (stereo partly specified)
1 (yes)

Is 20 µM strictly greater than the compound's reported EC90? compound: "CCCC(O)(CCC)CCCCCN1C[C@H](O)[C@@H](O)[C@H](O)[C@H]1CO"
0 (no)

Is 20 µM strictly greater than the compound's reported EC90? compound: OC[C@@H]1[C@@H](O)[C@H](O)[C@@H](O)CN1CCCCCCOC1CC2CCC1C2 (stereo partly specified)
0 (no)

Is 20 µM strictly greater than the compound's reported EC90? compound: "CCC(O)(CC)CCCCCN1C[C@H](O)[C@@H](O)[C@H](O)[C@H]1CO"
0 (no)

Is 20 µM strictly greater than the compound's reported EC90? compound: "Cc1ccc(C)c(OCCCCCCN2C[C@H](O)[C@@H](O)[C@H](O)[C@H]2CO)c1"
0 (no)

Is 20 µM strictly greater than the compound's reported EC90? compound: OC[C@@H]1[C@@H](O)[C@H](O)[C@@H](O)CN1CCCCCOCC1CC2CCC1C2 (stereo partly specified)
0 (no)

Is 20 µM strictly greater than the compound's reported EC90? compound: C[C@@H]1CCCCC1OCCCCCCN1C[C@H](O)[C@@H](O)[C@H](O)[C@H]1CO (stereo partly specified)
1 (yes)

Is 20 µM strictly greater than the compound's reported EC90? compound: CC1CCC(OCCCCCCN2C[C@H](O)[C@@H](O)[C@H](O)[C@H]2CO)CC1 (stereo partly specified)
0 (no)

Is 20 µM strictly greater than the compound's reported EC90? compound: "OC[C@@H]1[C@@H](O)[C@H](O)[C@@H](O)CN1CCCCCCC1(O)CCCCC1"
0 (no)

Is 20 µM strictly greater than the compound's reported EC90? compound: "CCCCCCCCCN1C[C@H](O)[C@@H](O)[C@H](O)[C@H]1CO"
0 (no)

Is 20 µM strictly greater than the compound's reported EC90? compound: "OC[C@@H]1[C@@H](O)[C@H](O)[C@@H](O)CN1CCCCCC1(O)CCCCC1"
0 (no)

====

- assay_comment: Selectivity index, ratio of CC50 for bovine MDBK cells to EC50 for 1 MOI Bovine viral diarrhea virus infected in bovine MDBK cells
- Type: toxicity, cell-based
- stated_conditions: cattle; read-out: Ratio CC50/EC50
For each of the molecules below, state its selectivity ratio.

According to the records, this molecule "CCC(O)(CC)CCCCCN1C[C@H](O)[C@@H](O)[C@H](O)[C@H]1CO" displays selectivity ratio of > 23

According to the records, this molecule OC[C@@H]1[C@@H](O)[C@H](O)[C@@H](O)CN1CCCCCOCC1CC2CCC1C2 (stereo partly specified) displays selectivity ratio of > 172

According to the records, this molecule CC1CCC(OCCCCCCN2C[C@H](O)[C@@H](O)[C@H](O)[C@H]2CO)CC1 (stereo partly specified) displays selectivity ratio of > 70

According to the records, this molecule "CCCC(O)(CCC)CCCCCN1C[C@H](O)[C@@H](O)[C@H](O)[C@H]1CO" displays selectivity ratio of > 53

According to the records, this molecule C[C@@H]1CCCCC1OCCCCCCN1C[C@H](O)[C@@H](O)[C@H](O)[C@H]1CO (stereo partly specified) displays selectivity ratio of > 151

According to the records, this molecule "OC[C@@H]1[C@@H](O)[C@H](O)[C@@H](O)CN1CCCCCCC1(O)CCCCC1" displays selectivity ratio of > 28

According to the records, this molecule "Cc1ccc(C)c(OCCCCCCN2C[C@H](O)[C@@H](O)[C@H](O)[C@H]2CO)c1" displays selectivity ratio of 162

According to the records, this molecule OC[C@@H]1[C@@H](O)[C@H](O)[C@@H](O)CN1CCCCCCOC1CC2CCC1C2 (stereo partly specified) displays selectivity ratio of > 111

According to the records, this molecule "OC[C@@H]1[C@@H](O)[C@H](O)[C@@H](O)CN1CCCCCC1(O)CCCCC1" displays selectivity ratio of > 48

According to the records, this molecule CC(C)[C@@H]1CC[C@@H](C)CC1OCCCCCCN1C[C@H](O)[C@@H](O)[C@H](O)[C@H]1CO (stereo partly specified) displays selectivity ratio of 146

According to the records, this molecule "CCCCCCCCCN1C[C@H](O)[C@@H](O)[C@H](O)[C@H]1CO" displays selectivity ratio of 33
